- ASSAY_OVERVIEW: Relative binding affinity to estrogen receptor relative to estradiol
EXPERIMENTAL_ENDPOINT: RBA (%)
Numbers only, in %.

chemical_smiles=CCc1c(-c2ccc(O)cc2)nn(-c2ccc(O)cc2)c1-c1ccc(O)cc1 experimental_endpoint=RBA reported_result=19
chemical_smiles=CCn1c(-c2ccc(O)cc2)nc(-c2ccccc2)c1-c1ccc(O)cc1 experimental_endpoint=RBA reported_result=0.25

# return RBA for each item in the list
1. CCc1c(-c2ccc(O)cc2)n[nH]c1-c1ccc(O)cc1
2. CCn1c(-c2ccc(O)cc2)nc(-c2ccc(O)cc2)c1-c1ccc(O)cc1
3. CCc1c(-c2ccc(O)cc2)nc(-c2ccccc2)n1-c1ccc(O)cc1

[0.02, 0.38, 0.37]
